This collection of values is drawn from patent US8840891.

biological target: T1, TSHR coated onto tubes (human, UniProt P16473 21-764, limits assumed); experiment: TSHR coated tubes, competitor 125I-TSH
T1 construct: whole entry named; also called TSHR coated tubes; thyrotropin receptor
reported-metric: % inhib of 125I-TSH binding at 100 µg/mL (%)
Please respond with the number in % and leave the unit unwritten.

Consider the worked cases shown below.
9D33 IgG (antibody, V domains shown) VH: DVQIQQPGTELVKPGASVRLSCKASGYTFTTYWMHWVKQRPGQGLEWIGEIDPSDSYTNYNQKFKGKATLTVDKSSSTAYMHLSSLTSEDSAVYYCSRNYGSGYYFDYWGQGTTLTVSS VL: GVEMTQSPAIMSASPGEKVTMTCSASSSVSYMHWYQQKSGTSPKRWIYDTSKLASGVPARFSGSGSGTSYSLTISSMETEDAATYYCQQWSSNPWTFGGGTKLEIK ... 69
14D3 IgG (antibody, V domains shown) VH: DVQMQQPGPELVKPGASLKMSCKASGYSFTGYNMHWVKQSHGKSLEWIGYIDPYSGATSYNQKFEGKATLTVDKSSSTAYMQLNSLTSEDSAVYYCARRWDWDPYAMDYWGQGTSVTVSS VL: NILMTQSPAILSVSPGERVSFACRASQSIGTSIHWYQQRTNGSPRLLIKYASESISGIPSRFSGSGSGTDFTLSINSVESEDIADYYCQQTNRWPLTFGAGTKLELKR ... 57
2B4 IgG (antibody, V domains shown) VH: DVQLQQSGTVLARPGASVRMSCKASGYSFTRYWIHWLKQRPGQGLEWIGAIFPGNRDTSYNQRFKGKAEVTAVTSASTAYLDLSSLTNEDSAVYYCTRWPYYGSIYVNFDYWGQGTTLTVSS VL: DIVMTQSPLSLPVSLGDQASISCRTSQNLVHRNGNTYLHWYLQKPGQSPKLLIYKISNRFSGVPDRFSGSGSGTDFTLKISRVEAEDLGVYFCSQGTHVPPTFGGGTKLEIKR ... 88.5

Then this binder:
Short answer for 16E5 IgG (antibody, V domains shown) VH: DVQLVQSGPELVKPGASVKMSCKASGYSFTGYNMHWVKQSHGKSLEWIGYIDPYNGATSYNQKFEDKATLTVDKSSSTAYMQLNSLTSEDSAVYYCARRWDWDPYAMDYWGQGTSVTVSS VL: DILLTQSPAILSVSPGERVSFSCRASQSIGTSIHWYQQRTNGSPRLLIKYASESISGIFSRFSGSGSGTDFTLTINSVESEDIADYYCQQSNRWPLTFGAGTKLELKR : % inhib of 125I-TSH binding at 100 µg/mL was 48
